- System: PC43-10 (RFC) (CHO)
- protocol-summary: proliferation assay, PC43-10 CHO cells expressing RFC only
- Format: cell-based, Chinese hamster
- experimental-parameters: folate-/glycine-free RPMI1640 with 25 nM leucovorin; 96 h; drug 0-1000 nM; read-out: IC50s (SE) PC43-10 (RFC) (CHO)
endpoint-label: pIC50
Units for pIC50: none; it is -log10 of a concentration expressed in mol/L.

Ask: Name the recorded pIC50 for Nc1nc2ccn(CCCc3ccc(C(=O)N[C@@H](CCC(=O)O)C(=O)O)c(F)c3)c2c(=O)[nH]1 .
Reply: 6.63

----------
- System: HCT116 (CTC)
- protocol-summary: proliferation assay, HCT116 colon tumor cells
- Type: cell-based, human
- experimental-parameters: folate-/glycine-free RPMI1640 with 25 nM leucovorin; 96 h; read-out: IC50s (SE) HCT116 (CTC)
endpoint-label: IC50 (µM)
Record the value in µM, omitting the unit from your answer.

Ask: Name the recorded IC50 for Nc1nc2ccn(CCCCCc3ccc(C(=O)N[C@@H](CCC(=O)O)C(=O)O)s3)c2c(=O)[nH]1 .
Reply: 0.737

----------
- Tested on: IGROV1 (EOC)
- protocol-summary: proliferation assay, IGROV1 epithelial ovarian cancer cells
- Format: cell-based, human
- experimental-parameters: Homo sapiens, IGROV-1; folate-/glycine-free RPMI1640 with 25 nM leucovorin; read-out: IC50s (SE) IGROV1 (EOC)
endpoint-label: IC50 (nM)
Record the value in nM, omitting the unit from your answer.

Ask: Request: IC50, test system IGROV1 (EOC), entry Nc1nc2ccn(CCCc3ccc(C(=O)N[C@@H](CCC(=O)O)C(=O)O)cc3)c2c(=O)[nH]1 [AGF291]
Reply: 443

----------
- System: RT16 (FR alpha) (CHO)
- protocol-summary: proliferation assay, RT16 CHO cells expressing FR alpha only
- Type: cell-based, Chinese hamster
- experimental-parameters: Cricetulus griseus, RT16; folate-/glycine-free RPMI1640 with 25 nM leucovorin; 96 h; read-out: IC50s (SE) RT16 (FR alpha) (CHO)
endpoint-label: IC50
# include the unit after the value

Ask: Request: IC50, test system RT16 (FR alpha) (CHO), entry Nc1nc2ccn(CCCc3ccc(C(=O)N[C@@H](CCC(=O)O)C(=O)O)cc3)c2c(=O)[nH]1
Reply: 117 nM

----------
- System: HPAC (PaC)
- protocol-summary: proliferation assay, HPAC pancreatic cancer cells
- Format: cell-based, human
- experimental-parameters: Homo sapiens, HPAC; folate-/glycine-free RPMI1640 with 25 nM leucovorin; read-out: IC50s (SE) HPAC (PaC)
endpoint-label: IC50 (nM)
Record the value in nM, omitting the unit from your answer.

Ask: Name the recorded IC50 for Nc1nc2ccn(CCCc3ccc(C(=O)N[C@@H](CCC(=O)O)C(=O)O)cc3)c2c(=O)[nH]1 .
Reply: 301

Numbers sourced from patent US20230091810A1.
